Experimental readout: melting point (°C)
Report only the number, with the unit °C understood.

What value of melting point has been recorded for this entry: CC1(c2ccc(O)cc2)C(=O)N(c2ccc(C#N)c(C(F)(F)F)c2)C(=O)N1CCF (centres unmarked)
157

Next:
What value of melting point has been recorded for this entry: CN1C(=O)N(c2ccc(C#N)c(C(F)(F)F)c2)C(=O)C1(C)c1ccc(O)c(Cl)c1 (centres unmarked)
161.1

Note, next up: CN1C(=O)N(c2ccc(Cl)c(Cl)c2)C(=O)C1(CF)c1ccc(O)cc1 (centres unmarked)
167.2

Note, next up: CCOCN1C(=O)N(c2ccc(C#N)c(C(F)(F)F)c2)C(=O)C1(C)c1ccc(O)cc1 (centres unmarked)
143

====

System tested: human androgen receptor (hAR) (Homo sapiens)
Experimental details: Functional response test: hAR transactivation (luciferase reporter) in HALP2 cells
Format: cell-based
Experimental readout: KSchild (nM) potency
Report only the number, with the unit nM understood.

Example molecules with recorded KSchild (nM) potency:
What value of KSchild (nM) potency has been recorded for this entry: C=CCN1C(=O)N(c2ccc([N+](=O)[O-])c(C(F)(F)F)c2)C(=O)C1c1ccc(O)cc1 (stereo not shown) [Example 13]
122.47

Note, next up: O=C1C(c2ccc(O)cc2)N(CCO)C(=O)N1c1ccc(Cl)c(C(F)(F)F)c1 (stereo not shown) [Example 141]
17.32

Note, next up: CN1C(=O)N(c2ccc(Cl)c(Cl)c2)C(=O)C1(C)c1ccc(O)cc1 (stereo not shown) [Example 25]
10.9

Note, next up: CC1(c2ccc(O)cc2)C(=O)N(c2ccc(C#N)c(C(F)(F)F)c2)C(=O)N1CC(N)=O (stereo not shown) [Example 231]
60

Note, next up: CCCN1C(=O)N(c2ccc(C#N)c(C(F)(F)F)c2)C(=O)C1(C)c1ccc(O)cc1 (stereo not shown) [Example 225]
2.83

Note, next up: O=C1C(c2ccc(O)cc2)N(CCCCO)C(=O)N1c1ccc(F)c(C(F)(F)F)c1 (stereo not shown) [Example 135]
600

Note, next up: COCN1C(=O)N(c2ccc(C#N)c(OC)c2)C(=O)C1(C)c1ccc(O)cc1 (stereo not shown) [Example 223.1]
4

Note, next up: CC1(c2ccc(O)cc2)C(=O)N(c2ccc(C#N)c(C(F)(F)F)c2)C(=O)N1CCCO (stereo not shown) [Example 150]
60

Note, next up: COc1cc(N2C(=O)N(C)[C@](C)(c3ccc(O)cc3)C2=O)ccc1C#N [Example 156.2]
1.5

Note, next up: CC1(c2ccc(O)cc2)C(=O)N(c2ccc(C#N)c(C(F)(F)F)c2)C(=O)N1CCCCO (stereo not shown) [Example 24]
15

// next item, KSchild (nM) potency requested
What value of KSchild (nM) potency has been recorded for this entry: CN1C(=O)N(c2ccc(C#N)c3c2OCCO3)C(=O)C1(C)c1ccc(O)cc1 (stereo not shown) [Example 35]
36.34

====

System tested: human androgen receptor (hAR) (Homo sapiens, UniProt P10275)
Sequence (P10275 whole entry): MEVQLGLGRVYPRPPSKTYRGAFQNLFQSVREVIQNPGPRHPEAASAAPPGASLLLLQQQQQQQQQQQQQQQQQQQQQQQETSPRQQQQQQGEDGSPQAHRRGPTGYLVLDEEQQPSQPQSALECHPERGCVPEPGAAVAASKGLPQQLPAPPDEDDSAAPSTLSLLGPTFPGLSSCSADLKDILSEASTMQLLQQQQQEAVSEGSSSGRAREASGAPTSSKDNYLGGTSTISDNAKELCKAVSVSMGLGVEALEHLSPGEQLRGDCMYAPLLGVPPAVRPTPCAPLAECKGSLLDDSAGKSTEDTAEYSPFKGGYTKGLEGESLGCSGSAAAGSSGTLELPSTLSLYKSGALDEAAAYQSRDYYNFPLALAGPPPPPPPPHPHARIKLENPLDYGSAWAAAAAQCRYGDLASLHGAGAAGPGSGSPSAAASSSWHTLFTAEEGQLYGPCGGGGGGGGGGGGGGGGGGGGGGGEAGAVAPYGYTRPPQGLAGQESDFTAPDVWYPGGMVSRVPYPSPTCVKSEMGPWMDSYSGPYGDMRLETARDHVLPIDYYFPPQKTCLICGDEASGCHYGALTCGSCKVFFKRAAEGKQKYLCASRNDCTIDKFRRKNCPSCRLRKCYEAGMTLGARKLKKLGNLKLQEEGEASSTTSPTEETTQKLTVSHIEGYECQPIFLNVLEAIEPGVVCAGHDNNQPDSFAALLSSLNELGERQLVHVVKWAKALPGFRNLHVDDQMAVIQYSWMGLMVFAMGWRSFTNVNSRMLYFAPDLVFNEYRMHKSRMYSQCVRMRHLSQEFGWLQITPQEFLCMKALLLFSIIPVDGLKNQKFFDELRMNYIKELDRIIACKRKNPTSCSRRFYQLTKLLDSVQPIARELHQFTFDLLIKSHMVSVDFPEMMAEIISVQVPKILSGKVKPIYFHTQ
Experimental details: Functional response test: hAR transactivation (luciferase reporter) in HALP2 cells
Format: cell-based
Condition notes: agonism; HALP2 cells (HeLa, hAR + ARE-luciferase), 20 hours at 37° C.
# label = 1.0 if EC50 < 200 nM else 0.0

Example cases with answers are listed next.
In plain terms, does CC1(c2ccc(O)cc2)C(=O)N(c2ccc(Cl)c(Cl)c2)C(=O)N1CCCO (centres unmarked) come in under 200 nM for EC50?
0.0

Note, next up: CC1(c2ccc(O)cc2)C(=O)N(c2ccc(Cl)c(Cl)c2)C(=O)N1CCC#N (centres unmarked)
1.0

Note, next up: N#CCN1C(=O)N(c2cccc(C(F)(F)F)c2)C(=O)C1c1ccc(O)cc1 (centres unmarked)
0.0

Note, next up: C#CCN1C(=O)N(c2cccc(C(F)(F)F)c2)C(=O)C1c1ccc(O)cc1 (centres unmarked)
1.0

Note, next up: CN1C(=O)N(c2ccc(Cl)c(Cl)c2)C(=O)C1c1cccc(O)c1 (centres unmarked)
1.0

Note, next up: O=C1C(c2ccc(O)cc2)N(Cc2ccc3c(c2)OCO3)C(=O)N1c1ccc(F)c(F)c1 (centres unmarked)
1.0

# next compound below
In plain terms, does CN(C)CCN1C(=O)N(c2ccc(F)c(C(F)(F)F)c2)C(=O)C1c1ccc(O)cc1 (centres unmarked) come in under 200 nM for EC50?
0.0

// provenance: patent US8168667B2
